protocol_summary: ATG_PXRE_CIS: Attagene CIS-FACTORIAL HepG2 Assay for human Pregnane X Receptor Element (PXRE) (AID 2282957)
run_conditions: HepG2 Attagene CIS-FACTORIAL PXRE reporter, mRNA; actives raise or lower the signal
The source made the active and inactive calls. Rule for the calls: active = hit-call score of the fitted dose curve at least 0.9, where 1 is the maximum; inactive = score below 0.9.

molecule | AC50
CC(Oc1ccc(Cl)cc1Cl)C(=O)O (stereo not drawn) | 79.7 µM (active)
CN(C)C(=S)SSC(=S)N(C)C | inactive
CCOP(=S)(OCC)SCn1c(=O)oc2cc(Cl)ccc21 | 2.21 µM (active)
CNC(=O)ON=CC(C)(C)SC | inactive
C=CCC1=C(C)C(OC(=O)C2C(C=C(C)C)C2(C)C)CC1=O (stereo not drawn) | 566 nM (active) [middle of 6 runs]
CS/C(C)=N/OC(=O)N(C)SN(C)C(=O)O/N=C(\C)SC | inactive
N#Cc1cc(Br)c(O)c(Br)c1 | 18.4 µM (active)
CCNc1nc(Cl)nc(NC(C)C)n1 | 27.4 µM (active) [middle of 4 runs]
CCCCOC(=O)c1ccccc1C(=O)OCCCC | 27.4 µM (active) [middle of 5 runs]
N#CC(CCc1ccc(Cl)cc1)(Cn1cncn1)c1ccccc1 (stereo not drawn) | 1.5 µM (active)
Fc1ccc(Oc2ccnc3cc(Cl)cc(Cl)c23)cc1 | inactive
O=C(O)c1nc(Cl)ccc1Cl | inactive
CCOC(=O)C(Cl)Cc1cc(-n2nc(C)n(C(F)F)c2=O)c(F)cc1Cl (stereo not drawn) | 39.8 µM (active)
CCc1nn(C)c(C(=O)NCc2ccc(C(C)(C)C)cc2)c1Cl | 3.17 µM (active)
COP(N)(=O)SC (stereo not drawn) | inactive
CCCCC(CC)COC(=O)c1ccccc1C(=O)OCC(CC)CCCC (stereo not drawn) | 9.84 µM (active)
COC(=O)C=C(C)OP(=O)(OC)OC | inactive
CC1COC(Cn2cncn2)(c2ccc(Oc3ccc(Cl)cc3)cc2Cl)O1 (stereo not drawn) | 2 µM (active)
CO/C=C(/C(=O)OC)c1ccccc1Oc1cc(Oc2ccccc2C#N)ncn1 | 526 nM (active) [middle of 6 runs]
CC(C)C1(C)N=C(c2nc3ccccc3cc2C(=O)O)NC1=O (stereo not drawn) | 11.1 µM (active)
C#CCOS(=O)OC1CCCCC1Oc1ccc(C(C)(C)C)cc1 (stereo not drawn) | 0.661 µM (active)
CCON=C(CC)C1=C(O)CC(c2c(C)cc(C)cc2C)CC1=O (stereo not drawn) | 34.9 µM (active)
CCNc1nc(Cl)nc(NCC)n1 | 32.7 µM (active)
